Examples of molecules with documented pEC50 follow.
Test system: TNFα
Assay: Cot Monocyte TNFα Cell Based Assay
Conditions: Homo sapiens, Monocyte, read-out: EC50 TNF, LPS-stimulated human monocytes, TNFα TR-FRET
pEC50: −log10 of the molar value.

{"molSmiles": "Cc1nc(F)ccc1[C@H](Nc1cc(Cl)c2ncc(C#N)c(NCC(C)(C)C)c2c1)c1nnn(C)c1F", "pEC50": 7.29}
{"molSmiles": "Cc1nc(F)ccc1[C@H](Nc1cc(C#N)c2ncc(C#N)c(NCC(C)(C)C)c2c1)c1nnn([C@@H](C)CF)c1F", "pEC50": 7.77}
{"molSmiles": "Cc1nc(F)ccc1[C@H](Nc1cc(Cl)c2ncc(C#N)c(NCC(C)(C)C(F)(F)F)c2c1)c1nnn(C2(C)CC2)c1F", "pEC50": 7.39}
{"molSmiles": "Cc1nc(F)ccc1[C@H](Nc1cc(C#N)c2ncc(C#N)c(NCC(C)(C)C)c2c1)c1cn(CC(C)(F)F)nn1", "pEC50": 7.28}
